Tested on: UO-31 renal
Experiment: NCI-60 one-dose screen, 48 h (100 = growth as untreated, 0 = no growth, -100 = all killed)
Settings: 10 µM unless noted
The panel holds about 83,000 compounds, 20% with a hit somewhere; the sample as a whole holds those more often.
Label NO if growth falls below 90%; label YES in every other case.

| COMPOUND | LABEL VALUE |
| --- | --- |
| N#CC(=S)Nc1ccc(Cl)c(Cl)c1 | NO |
| CCOc1ccc(/C=C\C(=O)O)cc1 | YES |
| CC(=O)c1cccc(OC(=O)c2ccccc2)c1 | YES |
| CC(=O)/C(N=Nc1ccc(S(=O)(=O)c2ccc(N=N/C(C(C)=O)=C(/C)O)cc2)cc1)=C(\C)O | NO |
| Cc1cccc(Cl)c1N | YES |
| CCC(C)NC(=O)c1ccccc1C (configuration not stated) | YES |
| COC(=O)c1ccccc1Cl | YES |
| COC(=O)c1cc(C(=O)OC)cc([N+](=O)[O-])c1 | NO |
| CC(C)(C)OC(=O)NCCc1ccc(N)cc1 | NO |
| Cc1c(Cl)c(C)c(Cc2c(C)c(Cl)c(C)c(Cl)c2O)c(O)c1Cl | NO |
| O=[N+]([O-])c1ccc(N2CCN=N2)cc1 | NO |
| S=c1nn[nH]n1C1CCCCC1 | YES |

----------
Tested on: SK-MEL-2 melanoma
Assay: NCI-60 one-dose screen, 48 h (100 = growth as untreated, 0 = no growth, -100 = all killed)
Conditions: 10 µM unless noted
This is part of a sample that, as a whole, favours compounds with a hit. Of some 83,000 tested, about 20% had one in any assay. Active and inactive are the calls of the source. How the source made its calls: active means growth percent below 10; inactive means the rest.

| MOLECULE | SYSTEM | growth |
| --- | --- | --- |
| CCCCCCC(C)CC1=C(O)c2ccccc2C(=O)C1=O (stereo not drawn) | SK-MEL-2 melanoma | 68.9% (inactive) |
| O=C(O)c1cccc(Br)c1 | SK-MEL-2 melanoma | 105% (inactive) |
| CC1(C)OC(=O)C(=Cc2ccc(C#N)cc2)C(=O)O1 | SK-MEL-2 melanoma | 93.7% (inactive) |
| C#CCOC(=O)C(N)CS (stereo not drawn) | SK-MEL-2 melanoma | 115% (inactive) |
| CCOc1ccc(/C=C\C(=O)O)cc1 | SK-MEL-2 melanoma | 114% (inactive) |
| Cc1cnc(N)s1 | SK-MEL-2 melanoma | 102% (inactive) |
| COc1ccc2nccc(Cl)c2c1 | SK-MEL-2 melanoma | 97.4% (inactive) |
| CCNC1=CC(=O)c2ncccc2C1=O | SK-MEL-2 melanoma | 26.9% (inactive) |
| O=C1c2ccccc2CN1c1ccccc1 | SK-MEL-2 melanoma | 70.6% (inactive) |
| CC1=CC(=O)c2cccc(NC3=NCCO3)c21 | SK-MEL-2 melanoma | 93.8% (inactive) |
| CCOC(C)=N | SK-MEL-2 melanoma | 110% (inactive) |
| CCNCc1ccccc1 | SK-MEL-2 melanoma | 111% (inactive) |
| CCOC(=O)C1=CC(=O)CC(C)(C)O1 | SK-MEL-2 melanoma | 114% (inactive) |
| CC(=O)Nc1ccc2oc(=O)ccc2c1 | SK-MEL-2 melanoma | 101% (inactive) |
| NC(=O)Cc1nc(O)cc(=O)[nH]1 | SK-MEL-2 melanoma | 102% (inactive) |
| Nc1ccccc1SC1CC(=O)N(c2ccc(I)cc2)C1=O (stereo not drawn) | SK-MEL-2 melanoma | 86.9% (inactive) |
| COc1ccc(COC=O)cc1 | SK-MEL-2 melanoma | 108% (inactive) |
| COCCCNC1=C(C#N)C(=O)NC(c2cccs2)S1 (stereo not drawn) | SK-MEL-2 melanoma | 119% (inactive) |

----------
Test system: TK-10 renal
Assay: NCI-60 one-dose screen, 48 h (100 = growth as untreated, 0 = no growth, -100 = all killed)
Settings: 10 µM unless noted
The panel holds about 83,000 compounds, 20% with a hit somewhere; the sample as a whole holds those more often. The source made the active and inactive calls. How the source made its calls: active means growth percent below 10; inactive means the rest.

| COMPOUND | growth |
| --- | --- |
| COc1ccc(/C=N/NC(N)=S)cc1 | 104% (inactive) |
| NC(=O)Cc1nc(O)cc(=O)[nH]1 | 94% (inactive) |
| CCN(CC)CCO/N=C1\CC(c2ccc(OC)c(OC)c2)Oc2ccccc21 (centres undefined) | 86.9% (inactive) |
| COCCNC(C)=O | 102% (inactive) |
| CCC/C(=N/NC(N)=O)c1ccco1 | 88.3% (inactive) |
| CC1NC(C)c2ccc3ccccc3c2O1 (centres undefined) | 110% (inactive) |
| CCN(CC)C(=S)SCCO | 86% (inactive) |
| O=C(O)COc1ccccc1F | 109% (inactive) |
| Cc1c(Cl)c(C)c(Cc2c(C)c(Cl)c(C)c(Cl)c2O)c(O)c1Cl | 25.1% (inactive) |
| CC(=O)c1cccc(OC(=O)c2ccccc2)c1 | 106% (inactive) |
| COc1ccc(CCNC(=S)NN)cc1OC | 120% (inactive) |
| Cc1ccc([N+](=O)[O-])cc1Br | 97.1% (inactive) |
| CCNCc1ccccc1 | 100% (inactive) |
| CCOCCC(=O)O | 103% (inactive) |
| Cc1cnc(N)s1 | 114% (inactive) |
| O=C1c2cccnc2-c2ncccc21 | 97.1% [100 µM] (inactive) |
| CC1CC(O)CC(C)(C)C1.CC1CC(O)CC(C)(C)C1.CC1CC(O)CC(C)(C)C1.CC1CC(O)CC(C)(C)C1.[Ti] (centres undefined) | 104% (inactive) |
| CSc1nc(N)c(N)c(N)n1 | 111% (inactive) |
| CCC(=O)Oc1ccc(OCc2ccccc2)cc1 | 92.1% (inactive) |
| CCn1c2ccc(N(C)C)cc2c2cc(N(C)C)ccc21 | 118% (inactive) |
| CC(=O)C[n+]1ccccc1Sc1ccc(Cl)cc1 | 104% (inactive) |
| O=C(c1ccccc1)C1(Br)CCCCC1 | 103% (inactive) |
| COC(=O)CCOc1ccccc1 | 108% (inactive) |
| O=C1C=CC(=O)N1Cc1ccco1 | 94.4% (inactive) |
| Cc1cc2ccccc2c2cc3ccccc3cc12 | 98.8% (inactive) |
| CC(=O)/C(N=Nc1ccc(S(=O)(=O)c2ccc(N=N/C(C(C)=O)=C(/C)O)cc2)cc1)=C(\C)O | 108% (inactive) |
| CCCC(=O)Oc1ccc2ccccc2c1 | 103% (inactive) |
| Cc1nc(Nc2ccc(Cl)cc2)c2cnn(-c3ccccc3)c2n1 | 95.4% (inactive) |
| O=c1[nH]c(=O)c2[nH]c(=O)[nH]c2[nH]1 | 92.1% (inactive) |
| CCc1ccccc1-n1[nH]c(C)c(C=N)c1=O | 103% (inactive) |
| O=c1ccn2c(n1)OC1CC2OC1COC(c1ccccc1)(c1ccccc1)c1ccccc1 (centres undefined) | 134% [100 µM] (inactive) |
| O=C1C2=C(Nc3cc(Cl)ccc3N2)OC1c1c[nH]c2ccc(COc3ccccc3)cc12 (centres undefined) | 71.6% (inactive) |
| C/C=C/C(=O)OCCCCCCCCCCCC | 92.8% (inactive) |
| COc1ccc(CCl)c(C)c1OC | 102% (inactive) |
| O=C(N=C1C(=O)C2(CCCCC2)C2(N=C(c3ccccc3)OC2=O)C12CCCCC2)c1ccccc1 (centres undefined) | 86.2% (inactive) |
| O=[N+]([O-])c1ccc(N/N=C/C2CCCCCC2)c([N+](=O)[O-])c1 | 118% (inactive) |
| COC(=O)c1nc(=S)[nH]c(C(=O)OC)c1C(=O)c1ccc(OC)cc1 | 110% (inactive) |
| CCOc1ccc(/C=C\C(=O)O)cc1 | 109% (inactive) |
| CCC(C)(O)CCC(C)(O)CC (centres undefined) | 103% (inactive) |

----------
Entries and their measured growth follow.
System: 786-0 renal
Assay: NCI-60 one-dose screen, 48 h (100 = growth as untreated, 0 = no growth, -100 = all killed)
Settings: 10 µM unless noted
This is part of a sample that, as a whole, favours compounds with a hit. Of some 83,000 tested, about 20% had one in any assay.

| COMPOUND | growth [%] |
| --- | --- |
| COc1ccc(/C=N/Nc2nc3ccccc3s2)cc1 | 111 |
| CCOC(=O)c1ccc(C(=N)N)cc1 | 106 |
| CCC/C(=N/NC(N)=O)c1ccco1 | 89.7 |
| CCC(C)NC(=O)c1ccccc1C (configuration not stated) | 95.7 |
| O=C(N=C1C(=O)C2(CCCCC2)C2(N=C(c3ccccc3)OC2=O)C12CCCCC2)c1ccccc1 (configuration not stated) | 77.7 |
| Cc1c(O)nc(N)[nH]c1=O | 114 |
| OC1CCCN(Cc2ccccc2)C1 (configuration not stated) | 115 |
| Cc1cc(=NO)cc(C)n1O | 107 |
| N#Cc1ccc(/C=C/C(=O)c2ccccc2)cc1 | 102 |
| N#Cc1c[nH]n2ccnc12 | 97.3 |
| CN(C)C(=S)N(C)C | 108 |
| CC(C)=NOC(C)C(=O)O (configuration not stated) | 97.8 |
| Nc1nc(-c2ccccn2)cc(-c2cc(-c3ccccn3)nc(N)n2)n1 | 112 |
| CC(C)(C)OC(=O)NCCc1ccc(N)cc1 | 100 |
| O=[N+]([O-])c1ccc(N2CCN=N2)cc1 | 84.8 |
| Cc1cccc(Cl)c1N | 113 |
| CCOC(=O)c1ccc(N2C(=O)C(Cl)(c3ccccc3)C2c2ccco2)cc1 (configuration not stated) | 80.9 |
